Consider the following molecules; for each one, report its SpecSum.
Molecular target: T1, nSR100 (Mus musculus, UniProt Q8BKA3)
T1 construct: host or cells: mouse N2A cells
T1 sequence (Q8BKA3 1-608): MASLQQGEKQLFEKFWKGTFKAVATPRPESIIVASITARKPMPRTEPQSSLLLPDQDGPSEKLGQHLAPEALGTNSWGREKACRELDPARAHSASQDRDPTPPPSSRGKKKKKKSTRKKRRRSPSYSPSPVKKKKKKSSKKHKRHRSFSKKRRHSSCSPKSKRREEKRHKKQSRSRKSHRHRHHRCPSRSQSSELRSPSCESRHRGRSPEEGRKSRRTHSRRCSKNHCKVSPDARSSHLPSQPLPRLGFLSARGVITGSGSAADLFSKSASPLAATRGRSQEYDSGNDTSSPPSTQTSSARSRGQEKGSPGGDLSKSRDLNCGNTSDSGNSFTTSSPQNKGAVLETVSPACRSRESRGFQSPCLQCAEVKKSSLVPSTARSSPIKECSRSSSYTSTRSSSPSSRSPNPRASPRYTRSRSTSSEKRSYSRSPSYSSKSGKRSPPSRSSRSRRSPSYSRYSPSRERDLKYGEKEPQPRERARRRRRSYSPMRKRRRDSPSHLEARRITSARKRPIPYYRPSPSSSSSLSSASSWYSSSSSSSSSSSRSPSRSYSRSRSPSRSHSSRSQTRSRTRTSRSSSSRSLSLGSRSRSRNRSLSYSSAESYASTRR
Assay: AP-MS nSR100 interaction partners from mouse N2A cells (Table 5)
Format: binding
Settings: bait Srrm4, sum of spectra over 2 replicates
Give bare numbers.

Go through the items and report each one's SpecSum.
1. Csnk2a1 (protein, UniProt Q60737 1-391, looked up) Casein kinase II subunit alpha: MSGPVPSRARVYTDVNTHRPREYWDYESHVVEWGNQDDYQLVRKLGRGKYSEVFEAINITNNEKVVVKILKPVKKKKIKREIKILENLRGGPNIITLADIVKDPVSRTPALVFEHVNNTDFKQLYQTLTDYDIRFYMYEILKALDYCHSMGIMHRDVKPHNVMIDHEHRKLRLIDWGLAEFYHPGQEYNVRVASRYFKGPELLVDYQMYDYSLDMWSLGCMLASMIFRKEPFFHGHDNYDQLVRIAKVLGTEDLYDYIDKYNIELDPRFNDILGRHSRKRWERFVHSENQHLVSPEALDFLDKLLRYDHQSRLTAREAMEHPYFYTVVKDQARMSSTSMAGGSTPVSSANMMSGISSVPTPSPLGPLAGSPVIAAANSLGIPVPAAAGAQQ
2. Tpi1 (protein, UniProt P17751 2-249, looked up) Triosephosphate isomerase: APTRKFFVGGNWKMNGRKKCLGELICTLNAANVPAGTEVVCAPPTAYIDFARQKLDPKIAVAAQNCYKVTNGAFTGEISPGMIKDLGATWVVLGHSERRHVFGESDELIGQKVSHALAEGLGVIACIGEKLDEREAGITEKVVFEQTKVIADNVKDWSKVVLAYEPVWAIGTGKTATPQQAQEVHEKLRGWLKSNVNDGVAQSTRIIYGGSVTGATCKELASQPDVDGFLVGGASLKPEFVDIINAKQ
3. Grpel1 (protein, UniProt Q99LP6 28-217, looked up) GrpE protein homolog 1, …: CTATKQKNNGQNLDEDLGHCEPKTDPPSADKTLLEEKAKLEEQLRETMEKYKRALADTENLRQRSQKLVEEAKLYGIQGFCKDLLEVADILEKATQSVPKEEISNNNPHLKSLYEGLVMTEVQIQKVFTKHGLLRLDPIGAKFDPYEHEALFHTPVEGKEPGTVALVSKVGYKLHGRTLRPALVGVVKDA
4. Luc7l2 (protein, UniProt Q7TNC4 1-392, looked up) Putative RNA-binding protein …: MSAQAQMRAMLDQLMGTSRDGDTTRQRIKFSDDRVCKSHLLNCCPHDVLSGTRMDLGECLKVHDLALRADYEIASKEQDFFFELDAMDHLQSFIADCDRRTEVSKKRLAETQEEISAEVAAKAERVHELNEEIGKLLAKVEQLGAEGNVEESQKVMDEVEKARAKKREAEEVYRNSMPASSFQQQKLRVCEVCSAYLGLHDNDRRLADHFGGKLHLGFIEIREKLEELKRVVAEKQEKRNQERLKRREEREREEREKLRRSRSHSKNPKRSRSREHRRHRSRSMSRERKRRTRSKSREKRHRHRSRSSSRSRSRSHQRSRHSSRDRSRERSKRRSSKERFRDQDLASRDRDRSSRDRSPRDRDRKDKKRSYESANGRSEDRRSSEEREAGEI

Reply:
99
20
33
78

Ask: // query SpecSum value for entry P00761 (protein, UniProt P00761 1-231, looked up, full-length) FPTDDDDKIVGGYTCAANSIPYQVSLNSGSHFCGGSLINSQWVVSAAHCYKSRIQVRLGEHNIDVLEGNEQFINAAKIITHPNFNGNTLDNDIMLIKLSSPATLNSRVATVSLPRSCAAAGTECLISGWGNTKSSGSSYPSLLQCLKAPVLSDSSCKSSYPGQITGNMICVGFLEGGKDSCQGDSGGPVVCNGQLQGIVSWGYGCAQKNKPGVYTKVCNYVNWIQQTIAAN
Reply: 30
